Record: compiled pIC50 on Aminopeptidase N (Homo sapiens, UniProt P15144) from multiple reports.
Sequence (P15144 whole entry): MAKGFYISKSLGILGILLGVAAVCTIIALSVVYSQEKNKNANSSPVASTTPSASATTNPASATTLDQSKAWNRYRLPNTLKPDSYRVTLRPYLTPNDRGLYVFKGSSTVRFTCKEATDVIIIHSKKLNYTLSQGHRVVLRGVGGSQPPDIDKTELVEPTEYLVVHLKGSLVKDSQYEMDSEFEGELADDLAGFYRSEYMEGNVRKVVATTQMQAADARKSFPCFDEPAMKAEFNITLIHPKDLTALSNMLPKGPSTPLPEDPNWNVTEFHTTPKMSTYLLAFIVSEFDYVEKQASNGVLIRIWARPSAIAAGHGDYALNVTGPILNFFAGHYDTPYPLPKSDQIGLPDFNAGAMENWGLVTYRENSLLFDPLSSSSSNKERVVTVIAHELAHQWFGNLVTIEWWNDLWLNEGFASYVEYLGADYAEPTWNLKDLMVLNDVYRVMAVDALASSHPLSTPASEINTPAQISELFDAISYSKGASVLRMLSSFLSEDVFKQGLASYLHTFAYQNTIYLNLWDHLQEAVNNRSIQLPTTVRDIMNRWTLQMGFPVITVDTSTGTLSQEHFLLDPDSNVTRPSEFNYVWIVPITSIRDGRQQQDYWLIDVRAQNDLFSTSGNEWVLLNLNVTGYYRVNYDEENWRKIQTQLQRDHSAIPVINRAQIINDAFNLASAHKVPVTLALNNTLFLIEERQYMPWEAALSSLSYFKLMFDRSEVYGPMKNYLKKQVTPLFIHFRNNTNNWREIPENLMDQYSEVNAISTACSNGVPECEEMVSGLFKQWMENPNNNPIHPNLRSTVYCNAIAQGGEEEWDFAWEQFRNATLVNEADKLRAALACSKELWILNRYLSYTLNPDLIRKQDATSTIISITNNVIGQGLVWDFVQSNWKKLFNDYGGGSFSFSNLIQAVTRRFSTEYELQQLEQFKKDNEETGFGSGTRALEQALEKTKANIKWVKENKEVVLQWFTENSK
pIC50: −log10 of the molar value.

Examples with their reported pIC50 follow.
SMILES CODE: O=C(NC1(C(=O)O)CCCCC1)c1cccc2cc(-c3ccc(Cl)cc3)oc12
TARGET OF ASSAY: Aminopeptidase N (Homo sapiens, UniProt P15144)
OBSERVED: < 4.52
//
SMILES CODE: CC(C)c1cccc(C(C)C)c1N1C(=O)c2ccccc2C1=O
TARGET OF ASSAY: Aminopeptidase N (Homo sapiens, UniProt P15144)
OBSERVED: < 3.49
//
SMILES CODE: O=C(NO)[C@@H]1CC2(CN1S(=O)(=O)c1ccccc1)OCCCCO2
TARGET OF ASSAY: Aminopeptidase N (Homo sapiens, UniProt P15144)
OBSERVED: 3.97

Please look at the following compound next.
In: Look up and report measured pIC50 (Aminopeptidase N (Homo sapiens, UniProt P15144)) for the following compound: O=C(N[C@@H](Cc1ccccc1)C(=O)O)c1cc(F)cc2cc(-c3ccc(Cl)cc3)oc12
Out: < 4.52
